biological target: HLA-B*45:06; assay: IEDB peptide-MHC binding, purified MHC/competitive/fluorescence; filed as Kd, often an IC50 or EC50 that approximates it; bounds were set here for any values at or beyond the usual limits of such assays; conditions: source organism: Giardia lamblia ATCC 50803
measurement type: Kd

Endpoint output: Kd of "YTFFFTQYF" . Value? ≥ 5 µM

====

target: HLA-C*15:02; experiment: IEDB peptide-MHC binding, purified MHC/direct/fluorescence; filed as Kd, often an IC50 or EC50 that approximates it; bounds were set here for any values at or beyond the usual limits of such assays; details: source organism: Chelativorans sp. BNC1
measurement type: Kd

# value lookup — system HLA-C*15:02, readout Kd, item "WALDVPMYF" 0.179 µM

====

Reported values of Kd for individual entries
target: HLA-B*53:01; assay: IEDB peptide-MHC binding, purified MHC/competitive/radioactivity; filed as Kd, often an IC50 or EC50 that approximates it; bounds were set here for any values at or beyond the usual limits of such assays; conditions: source organism: Dengue virus 2 Jamaica/1409/1983
// return numeric value only (unit: nM, not printed)

Below, each entry is followed by its recorded Kd result.
[[record]]
seq = "MAAILAYTI"
units_label = "nM"
numeric_value = 13.2

[[record]]
seq = "GPLKLFMAL"
units_label = "nM"
numeric_value = 1010


As a next step, examine the sequence that follows.
# value lookup — system HLA-B*53:01, readout Kd, item "EPGQLKLNW" 33.1

====

biological target: HLA-B*40:01; experiment: IEDB peptide-MHC binding, purified MHC/competitive/radioactivity; filed as Kd, often an IC50 or EC50 that approximates it; bounds were set here for any values at or beyond the usual limits of such assays; details: source organism: Mammarenavirus lassaense
measurement type: Kd (µM)
// return numeric value only (unit: µM, not printed)

Endpoint output: Kd of "KEAYCQEFLL" . Value? 10.2

====

biological target: HLA-A*02:01; experiment: IEDB peptide-MHC binding, purified MHC/competitive/fluorescence; bounds were set here for any values at or beyond the usual limits of such assays; details: source organism: Sudan ebolavirus
Reported values of pIC50 for individual entries
The read-out pIC50 is expressed as -log10 of concentration in moles per litre.

[[record]]
seq = "FQKAFSMPL"
measurement_type = "pIC50"
numeric_value = 6.11

[[record]]
seq = "MPLGVVTNS"
measurement_type = "pIC50"
numeric_value = 4.89

[[record]]
seq = "GLRQLANET"
measurement_type = "pIC50"
numeric_value = 4.47


Endpoint output: pIC50 of "FKIDNNTFV" . Value? 4.39

====

Reported values of Kd for individual entries
target: HLA-A*26:01; experiment: IEDB peptide-MHC binding, purified MHC/direct/fluorescence; filed as Kd, often an IC50 or EC50 that approximates it; bounds were set here for any values at or beyond the usual limits of such assays; details: source organism: Vibrio cholerae

[[record]]
seq = "WAGIWGGKL"
system_tested = "HLA-A*26:01"
result = "≥ 20 µM"


As a next step, examine the sequence that follows.
Endpoint output: Kd of "ALYWALMES" . Value? ≥ 20 µM

====

biological target: HLA-A*26:01; test: IEDB peptide-MHC binding, purified MHC/direct/fluorescence; filed as Kd, often an IC50 or EC50 that approximates it; bounds were set here for any values at or beyond the usual limits of such assays; conditions: source organism: Salmonella enterica subsp. enterica serovar Typhimurium
pKd: −log10 of the molar value.
measurement type: pKd

Endpoint output: pKd of "LAMLVLHQV" . Value? ≤ 4.70

====

target: HLA-A*02:03; assay: IEDB peptide-MHC binding, purified MHC/competitive/radioactivity; filed as Kd, often an IC50 or EC50 that approximates it; bounds were set here for any values at or beyond the usual limits of such assays; conditions: source organism: Vaccinia virus WR
Reported values of pKd for individual entries
The read-out pKd is expressed as -log10 of concentration in moles per litre.

[[record]]
seq = "GLIVILFIM"
measurement_type = "pKd"
numeric_value = 5.86

[[record]]
seq = "VVISVIFYFI"
measurement_type = "pKd"
numeric_value = 6.12

[[record]]
seq = "PVLEKKVCAI"
measurement_type = "pKd"
numeric_value = 5.92

[[record]]
seq = "KVYLSTFNM"
measurement_type = "pKd"
numeric_value = 6.10


As a next step, examine the sequence that follows.
Endpoint output: pKd of "YVSSSYKDI" . Value? 5.92

====

Reported values of pKd for individual entries
molecular target: HLA-B*53:01; assay: IEDB peptide-MHC binding, purified MHC/competitive/radioactivity; filed as Kd, often an IC50 or EC50 that approximates it; bounds were set here for any values at or beyond the usual limits of such assays; conditions: source organism: Dengue virus 4 Philippines/H241/1956
The read-out pKd is expressed as -log10 of concentration in moles per litre.

Below, each entry is followed by its recorded pKd result.
[[record]]
seq = "GPLRMVLAF"
numeric_value = 6.91

[[record]]
seq = "PPVNDLKYSW"
numeric_value = 7.01


Endpoint output: pKd of "LPDYGELTL" . Value? 7.11

====

molecular target: HLA-A*11:01; experiment: IEDB peptide-MHC binding, purified MHC/competitive/radioactivity; filed as Kd, often an IC50 or EC50 that approximates it; bounds were set here for any values at or beyond the usual limits of such assays; settings: source organism: SARS coronavirus Tor2
measurement type: Kd (nM)
// return numeric value only (unit: nM, not printed)

Below, each entry is followed by its recorded Kd result.
[[record]]
seq = "AFHTPAFDK"
measurement_type = "Kd"
numeric_value = 957

[[record]]
seq = "VLTSEEVVLK"
measurement_type = "Kd"
numeric_value = 966


As a next step, examine the sequence that follows.
Endpoint output: Kd of "PVNQFTGYLK" . Value? 764

====

target: HLA-A*11:01; test: IEDB peptide-MHC binding, purified MHC/competitive/radioactivity; filed as Kd, often an IC50 or EC50 that approximates it; bounds were set here for any values at or beyond the usual limits of such assays; settings: source organism: Vaccinia virus WR
measurement type: Kd

Below, each entry is followed by its recorded Kd result.
[[record]]
seq = "ELRRAAIDR"
result = "≥ 77.9 µM"

[[record]]
seq = "KSKQDRSDGY"
result = "≥ 69.8 µM"


As a next step, examine the sequence that follows.
Endpoint output: Kd of "ETFKIDAVRY" . Value? ≥ 25.1 µM

====

biological target: HLA-A*68:01; assay: IEDB peptide-MHC binding, purified MHC/competitive/radioactivity; filed as Kd, often an IC50 or EC50 that approximates it; bounds were set here for any values at or beyond the usual limits of such assays; settings: source organism: Vaccinia virus WR
measurement type: log10 of Kd (log10 of the value in nM)
log10 Kd, nM

[[record]]
seq = "IILAALFMYY"
measurement_type = "log10 of Kd"
numeric_value = 3.17

[[record]]
seq = "SFIVPEFAK"
measurement_type = "log10 of Kd"
numeric_value = 3.05

[[record]]
seq = "QFIKPVSDLY"
measurement_type = "log10 of Kd"
numeric_value = 3.10


Endpoint output: log10 of Kd of "VLPHLCLDYK" . Value? 3.12

Endpoint output: log10 of Kd of "RLGLVLDDYK" . Value? 2.70

Endpoint output: log10 of Kd of "ETFKIDAVRY" . Value? 1.67

====

Reported values of pKd for individual entries
biological target: HLA-A*11:01; test: IEDB peptide-MHC binding, purified MHC/competitive/radioactivity; filed as Kd, often an IC50 or EC50 that approximates it; bounds were set here for any values at or beyond the usual limits of such assays; settings: source organism: Vaccinia virus WR
The read-out pKd is expressed as -log10 of concentration in moles per litre.

Below, each entry is followed by its recorded pKd result.
[[record]]
seq = "ESRPFDLIK"
measurement_type = "pKd"
numeric_value = 5.88

[[record]]
seq = "LALTDVEKR"
measurement_type = "pKd"
numeric_value = 4.91


# value lookup — system HLA-A*11:01, readout pKd, item "CAVHLIIYY" 6.10

# value lookup — system HLA-A*11:01, readout pKd, item "NLTDTNFKK" 6.18

# value lookup — system HLA-A*11:01, readout pKd, item "SFIVPEFAK" 6.99

# value lookup — system HLA-A*11:01, readout pKd, item "SVKYYGRSTK" 6.24

# value lookup — system HLA-A*11:01, readout pKd, item "MIKMFSQIDR" 5.42

# value lookup — system HLA-A*11:01, readout pKd, item "ESIEDKFDY" 4.95

# value lookup — system HLA-A*11:01, readout pKd, item "EQLSKYVEK" 8.01

# value lookup — system HLA-A*11:01, readout pKd, item "FLEFSNRVY" 5.49

# value lookup — system HLA-A*11:01, readout pKd, item "DIEIGNFYIR" 4.98

# value lookup — system HLA-A*11:01, readout pKd, item "TLITLILSNK" 8.47

# value lookup — system HLA-A*11:01, readout pKd, item "DSMDVLAEK" 8.76
